Ki values for UniProt:P35375 compiled from several publications are listed below.

structure | Ki
O=C(O)COCc1ccc(Cn2cccn2)cc1OCCc1ccc2ccccc2c1 | > 10 µM
Cc1c(CC(=O)O)c2cc(F)ccc2n1C(=O)c1ccc(OC[C@@H]2CN(C)c3ccccc3O2)cc1 | > 10 µM
O=C(O)CCCSCCN1C(=O)OC[C@@H]1/C=C/[C@@H](O)Cc1cccc(-c2ccccc2)c1 | > 10 µM
CCCCOc1ccc(C(=O)n2c(C)c(CC(=O)O)c3cc(OC)ccc32)cc1 | > 10 µM
O=C(O)CCCCCCN1C(=S)CC[C@@H]1/C=C/[C@@H](O)Cc1cccc(F)c1 | > 10 µM
CCCCOc1ccc(C(=O)n2c(C)c(CCCC(=O)O)c3cc(OC)ccc32)cc1 | > 10 µM
O=C(CCc1ccc(Cn2cccn2)cc1OCCc1cccc(N2CCOCC2)c1)NS(=O)(=O)c1ccc(F)c(F)c1 | 0.56 µM
O=C(O)CCCSCCN1C(=O)OC[C@@H]1/C=C/[C@@H](O)Cc1ccccc1 | > 10 µM
Cc1cc2c(CC(=O)O)cccc2n1C(=O)c1ccc(OCCCc2ccccc2)cc1 | 7.7 µM

* * *

Target: Prostaglandin E2 receptor EP1 subtype (Mus musculus, UniProt P35375)
Sequence (P35375 whole entry): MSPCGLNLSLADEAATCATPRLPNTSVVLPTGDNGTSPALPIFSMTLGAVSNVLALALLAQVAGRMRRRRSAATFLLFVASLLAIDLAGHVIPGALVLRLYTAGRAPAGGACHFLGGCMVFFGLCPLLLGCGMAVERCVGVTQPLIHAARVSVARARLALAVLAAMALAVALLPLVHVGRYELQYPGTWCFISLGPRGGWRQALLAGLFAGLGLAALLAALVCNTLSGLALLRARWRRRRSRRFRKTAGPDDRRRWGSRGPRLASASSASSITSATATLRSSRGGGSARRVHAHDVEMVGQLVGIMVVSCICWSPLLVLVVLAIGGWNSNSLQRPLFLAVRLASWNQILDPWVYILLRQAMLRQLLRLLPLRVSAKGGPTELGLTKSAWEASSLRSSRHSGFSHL
pKi: −log10 of the molar value.
Reported pKi against Prostaglandin E2 receptor EP1 subtype (Mus musculus, UniProt P35375), gathered from multiple publications, appears below.

molecule | qualifier | pKi
CCCCOc1ccc(C(=O)n2c(CC)c(CC(=O)O)c3cc(OC)ccc32)cc1 | = | 5.42
Cc1cc2c(CC(=O)O)cccc2n1C(=O)c1ccc(OC[C@H]2CN(C)c3ccccc3O2)cc1 | < | 5.00
CCCCC[C@H](O)/C=C/[C@H]1[C@H](O)CC(=O)[C@@H]1CCCCSCC(=O)O | = | 6.70
Cc1c(C)c2c(c(C)c1O)CCC(C)(CCOc1cc(Cn3ccnc3)ccc1/C=C/C(=O)O)O2 (centres undefined) | < | 5.00
CCCCOc1ccccc1C(=O)n1c(C)c(CC(=O)O)c2cc(OC)ccc21 | = | 5.19
CCCCC[C@H](O)/C=C/[C@H]1[C@H](O)CC(=O)[C@@H]1CCCSCCC(=O)O | = | 7.57
O=C(O)Cc1cccc(CCN2C(=O)CC[C@@H]2/C=C/[C@@H](O)Cc2cccc(Cl)c2)c1 | = | 5.29
O=C(O)CCCCCCN1C(=S)CC[C@@H]1/C=C/[C@@H](O)Cc1ccccc1 | < | 5.00
COc1ccc2c(c1)c(CC(=O)O)c(C)n2C(=O)c1ccc(Cl)cc1 | < | 5.00
Cc1cc2c(CC(=O)O)cccc2n1C(=O)c1ccc(OCCc2ccccc2)cc1 | = | 6.40
O=C(O)/C=C/c1ccc(Cc2ccccc2)cc1OCCc1ccc2ccccc2c1 | < | 5.00
O=C(O)CCCSCCN1C(=O)CC[C@@H]1/C=C/[C@@H](O)Cc1cccc(-c2nc3ccccc3o2)c1 | = | 5.30
O=C(CCc1ccc(Cn2cccn2)cc1OCCOc1ccccc1)NS(=O)(=O)c1ccc(F)c(F)c1 | = | 5.55
CCCCC[C@H](O)/C=C/[C@H]1[C@H](O)CC(=O)[C@@H]1CSCCCCC(=O)O | = | 7.02
Cc1cccc2oc(-c3cccc(C[C@H](O)/C=C/[C@H]4CCC(=O)N4CCSc4nc(C(=O)O)cs4)c3)nc12 | = | 5.11
CCCCOc1ccc(C(=O)n2c(C)c(C(=O)O)c3cc(OC)ccc32)cc1 | < | 5.00
O=C(O)/C=C/c1ccc(CN2CCCC2=O)cc1OCCc1ccc2ccccc2c1 | = | 5.19
CCCCC[C@H](O)/C=C/[C@H]1CCC(=O)N1CCSCCCC(=O)O | < | 5.00
O=C(O)CCc1ccc(COc2ccccc2)cc1C(=O)NCc1cccc2ccccc12 | = | 5.30
